Test system: cancer cell lines
Format: cell-based
Conditions: text summary of Tables 1–3
value kind: antiproliferative activity

>  <compound>
CNCc1ccc(-c2nc(C(=O)c3cc(OC)c(OC)c(OC)c3)cs2)cc1.Cl

>  <experimental result>
abrogated activity

$$$$
>  <compound>
COc1cc(C(=O)c2csc(-c3ccc(CN(C)C)cc3)n2)cc(OC)c1OC.Cl

>  <experimental result>
abrogated activity

$$$$

---

Tested on: DU 145
Test: SRB cytotoxicity assay, DU 145 prostate cancer cells
Format: cell-based, human
Conditions: Homo sapiens, DU-145, 96 h, read-out: IC50 ± SEM, DU 145
value kind: IC50 (µM)
Write it as a number; the unit µM goes unstated.

Task: Give a short answer stating reported IC50 for COc1cc(/C(=N\N)c2csc(-c3ccccc3)n2)cc(OC)c1OC [Compound 14b] .
Output: 1.21

---

Test: Aqueous solubility, Multiscreen solubility filter plate with LC-MS/MS
Format: physicochemical
Settings: phosphate buffered saline (PBS) buffer, pH 7.4
value kind: solubility at […]

Task: Give a short answer stating reported solubility at […] for COc1cc(C(=O)c2csc(-c3ccc(CN)cc3)n2)cc(OC)c1OC.Cl .
Output: ≥ 35 µg/mL
